Experimental System: human calcium-sensing receptor (CaSR) (Homo sapiens, UniProt P41180)
Construct: host or cells: HEK293
Sequence (P41180 20-1078): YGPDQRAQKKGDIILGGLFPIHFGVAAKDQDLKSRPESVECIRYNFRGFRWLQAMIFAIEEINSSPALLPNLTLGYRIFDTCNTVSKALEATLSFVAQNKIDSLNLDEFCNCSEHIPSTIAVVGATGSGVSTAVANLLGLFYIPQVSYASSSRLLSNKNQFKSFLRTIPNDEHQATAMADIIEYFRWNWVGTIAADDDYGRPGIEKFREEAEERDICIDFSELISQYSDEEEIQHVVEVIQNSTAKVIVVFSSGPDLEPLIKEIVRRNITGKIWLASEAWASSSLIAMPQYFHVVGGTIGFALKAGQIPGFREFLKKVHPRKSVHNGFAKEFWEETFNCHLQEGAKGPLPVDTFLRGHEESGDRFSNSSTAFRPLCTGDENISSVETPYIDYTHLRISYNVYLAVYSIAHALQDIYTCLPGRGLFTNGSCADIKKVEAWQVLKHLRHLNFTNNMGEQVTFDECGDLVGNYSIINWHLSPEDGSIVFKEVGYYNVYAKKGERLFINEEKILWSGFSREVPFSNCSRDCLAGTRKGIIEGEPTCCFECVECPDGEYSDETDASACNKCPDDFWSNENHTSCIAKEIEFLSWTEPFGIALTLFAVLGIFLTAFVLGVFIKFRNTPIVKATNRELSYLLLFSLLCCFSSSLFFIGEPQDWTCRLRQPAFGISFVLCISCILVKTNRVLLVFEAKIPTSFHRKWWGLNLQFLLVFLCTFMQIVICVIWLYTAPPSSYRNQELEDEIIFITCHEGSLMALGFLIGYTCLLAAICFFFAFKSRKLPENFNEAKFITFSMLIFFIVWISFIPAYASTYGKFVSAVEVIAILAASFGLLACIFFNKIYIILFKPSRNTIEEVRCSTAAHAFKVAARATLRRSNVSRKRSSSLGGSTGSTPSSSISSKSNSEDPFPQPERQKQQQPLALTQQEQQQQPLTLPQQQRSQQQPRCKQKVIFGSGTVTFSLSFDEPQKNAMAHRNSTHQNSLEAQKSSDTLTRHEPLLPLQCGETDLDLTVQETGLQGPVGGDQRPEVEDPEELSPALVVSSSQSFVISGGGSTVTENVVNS
Assay: Agonist activity on human calcium-sensing receptor (IP-One HTRF in stably transfected HEK293/CaSR cells)
Assay type: cell-based
Stated Conditions: HEK293/CaSR cells, IP-One production, 60 min at 37° C., CaCl2 1.2 mM; read-out: EC50 for calcium-sensing receptor
pEC50: −log10 of the molar value. Square brackets hold non-standard residues; d marks the D form. Peptide text beside a SMILES is read from it. * marks the point of attachment. Cys(free,S-linked) = N[C@@H](CS*)C(=O)O; dTle = CC(C)(C)[C@@H](N)C(=O)O

Molecule | pEC50
CC(=O)N[C@H](CSSC[C@H](N)C(=O)O)C(=O)N[C@H](CCCNC(=N)N)C(=O)N[C@H](CCCNC(=N)N)C(=O)N[C@H](Cc1ccc(O)cc1)C(=O)N[C@H](CCCNC(=N)N)C(=O)N[C@H](C)C(=O)N[C@H](CCCNC(=N)N)C(N)=O [Compound 24, Ac-c(C)-r-r-y-r-a-r-NH2] (Ac-[dC](Cys(free,S-linked))[dR][dR][dY][dR][dA][dR]-NH2) | 5.69
CC(=O)N[C@H](CSSC[C@H](N)C(=O)O)C(=O)N[C@H](CCCNC(=N)N)C(=O)N[C@H](CCCNC(=N)N)C(=O)N[C@@H](C(=O)N[C@H](CCCNC(=N)N)C(=O)N[C@H](CO)C(=O)N[C@H](CCCNC(=N)N)C(N)=O)C(C)(C)C [Compound 37, Ac-c(C)-r-r-(D-Tle)-r-s-r-NH2] (Ac-[dC](Cys(free,S-linked))[dR][dR][dTle][dR][dS][dR]-NH2) | 4.81
CC(=O)N[C@H](CSSC[C@H](N)C(=O)O)C(=O)N[C@H](CCCNC(=N)N)C(=O)N[C@H](CCCNC(=N)N)C(=O)N[C@H](CO)C(=O)N[C@H](CCCNC(=N)N)C(=O)N[C@H](CO)C(=O)N[C@H](CCCNC(=N)N)C(N)=O [Compound 25, Ac-c(C)-r-r-s-r-s-r-NH2] (Ac-[dC](Cys(free,S-linked))[dR][dR][dS][dR][dS][dR]-NH2) | 5.00
